type: physicochemical; conditions: Table 4; 10 mM, pH 7.3-7.4, tsat = 3 sec, ω1 = 3.6 μT, 37° C.
Checkbox rule: Signal (ppm) lower than 10 ppm = rule met; Signal (ppm) not lower than 10 ppm = rule not met.

O=C(O)c1cccc([N+](=O)[O-])c1O    rule not met
O=C(O)c1cccc(O)c1O [Compound 31, 2,3-dihydroxybenzoic acid]    rule met
O=C(O)c1cc(I)cc(I)c1O    rule not met

Criterion: Signal (ppm) strictly below 10 ppm. Is it met by O=C(O)c1cccc(F)c1O ?
rule met

Criterion: Signal (ppm) strictly below 10 ppm. Is it met by O=C(O)c1cc(Cl)cc(Cl)c1O ?
rule not met

----------
experiment: Screening of beta-hydroxy carboxylate analogs for CEST contrast (Table 4A); details: Concentration 10 mM
measurement name: Signal (ppm)

# example entries with known answers
Nc1ccc(C(=O)O)c(O)c1    9.5 ppm
O=C(O)c1cc(Br)cc(Br)c1O    10.5 ppm
O=C(O)CNC(=O)c1ccccc1O    None
O=C(O)c1cc2ccccc2c(Cc2c(O)c(C(=O)O)cc3ccccc23)c1O    9.5 ppm
O=C(O)c1ccc2cccnc2c1O    10.3 ppm

Please look up its Signal (ppm): O=C(O)c1ccccc1NC(=O)C(F)(F)F
9.3 ppm

Please look up its Signal (ppm): O=[N+]([O-])c1ccccc1O
None

Please look up its Signal (ppm): CS(=O)(=O)Nc1ccccc1C(=O)O
7.3 ppm

Please look up its Signal (ppm): O=C(O)c1ccccc1Nc1cccc(C(F)(F)F)c1
4.8 ppm

Please look up its Signal (ppm): Cc1cccc(C(=O)O)c1O
9.5 ppm

----------
type: physicochemical; conditions: Table 4; 10 mM, pH 7.3-7.4, tsat = 3 sec, ω1 = 3.6 μT, 37° C.
measurement name: Signal (ppm)
Use ppm as the unit, but write only the number.

# example entries with known answers
O=Cc1cccc(C(=O)O)c1O    10.5
O=C(O)c1cc(Br)cc(Br)c1O    10.5
CC(C)(C)c1cc(C(=O)O)c(O)c(C(C)(C)C)c1    9.3

Please look up its Signal (ppm): O=C(O)c1ccc2ccccc2c1O [Compound 29, 1-Hydroxy-2-naphthoic acid]
10.5

----------
Listing of recorded Signal (ppm) by entry.
experiment: Screening of beta-hydroxy carboxylate analogs for CEST contrast (Table 4A); settings: Concentration 10 mM
Use ppm as the unit, but write only the number.

O=C(O)c1cccc(O)c1O    9.0

Please look up its Signal (ppm): Nc1ccc(O)c(C(=O)O)c1
8.5

----------
details: Table 2; 10 mM, pH 7.3-7.4, 37° C.
Listing of recorded kex by entry.

# example entries with known answers
O=C(O)c1ccc([N+](=O)[O-])cc1O [Compound 19, 2-hydroxy-4-nitrobenzoic acid]    1500 s⁻¹
Nc1ccc(C(=O)O)c(O)c1 [Compound 17]    384 s⁻¹
O=C(O)c1ccc(O)cc1O [Compound 16]    460 s⁻¹

Please look up its kex: O=C(O)c1ccc(C(=O)O)c(O)c1 [Compound 18]
420 s⁻¹

----------
test: Screening of beta-hydroxy carboxylate analogs for CEST contrast (Table 4A); conditions: Concentration 10 mM
measurement name: kex (s⁻¹)
Use s⁻¹ as the unit, but write only the number.

# example entries with known answers
O=C(O)c1cccc(C(=O)O)c1O    6680
O=C(O)c1ccc2cccnc2c1O    1530
O=C(O)c1cc(C(=O)O)c(O)cc1O    460

Please look up its kex: O=C(O)c1ccc([N+](=O)[O-])cc1O
1500

Please look up its kex: COc1cccc(O)c1C(=O)O
4900

Please look up its kex: O=C(O)c1cccc([N+](=O)[O-])c1O
1430

Please look up its kex: O=C(O)c1ccc(O)c(/C=N/CC/N=C/c2cc(C(=O)O)ccc2O)c1
15400

Please look up its kex: Cc1cccc(C(=O)O)c1O
250

Please look up its kex: O=C(O)c1cc(Br)cc(Br)c1O
580

Please look up its kex: Cc1ccc(S(=O)(=O)Nc2ccccc2C(=O)O)cc1
440
